- experiment summary: Cmax in rat after 4 hrs
- Format: ADME, organism-based
- condition set: in vivo
measurement type: Cmax
A complete answer gives the number and then names the unit.

The reported Cmax of the compound CC1(C)CCC(N2CCC3(CC2)C(=O)NCN3c2ccccc2)c2cc(Cl)c(Cl)cc21 (stereo unspecified) was 518 nM
